Origin of measurements: PubChem BioAssay (EPA / NIEHS)

- Read-out: Fatty Acid-Binding Protein 1 (FABP1), FABP1 (gene 2168)
- Test Method Notes: LTEA_HepaRG_FABP1: Life Technologies and Expression Analysis (LTEA) Assay for Fatty Acid-Binding Protein 1 (FABP1) using HepaRG (AID 2283494)
- Conditions Used: mRNA level, 48 h; actives raise or lower the signal
Calls of active or inactive are those of the source. Rule for the calls: active = hit-call score of the fitted dose curve at least 0.9, where 1 is the maximum; inactive = score below 0.9.
Classes used: Yes for active, No for inactive

Compound	Group
CC1(c2ccc(Oc3ccccc3)cc2)OC(=O)N(Nc2ccccc2)C1=O (stereo not given)	Yes
Clc1ccccc1-c1nnc(-c2ccccc2Cl)nn1	Yes
OCCOc1ccccc1	No
CC(C)(C)C(O)/C(=C\c1ccc(Cl)cc1Cl)n1cncn1 (stereo not given)	Yes
CC1(C)C(C=C(Cl)Cl)C1C(=O)OC(C#N)c1ccc(F)c(Oc2ccccc2)c1 (stereo not given)	No
CNC(=O)Oc1cccc(N=CN(C)C)c1	No
CC(C)N(C(=O)COc1nnc(C(F)(F)F)s1)c1ccc(F)cc1	Yes
O=[N+]([O-])/N=C1\NCCN1Cc1ccc(Cl)nc1	Yes
O=C(NC(=O)c1c(F)cccc1F)Nc1ccc(OC(F)(F)C(F)OC(F)(F)F)c(Cl)c1 (stereo not given)	No
Cc1[nH]c(=O)n(C(C)(C)C)c(=O)c1Cl	No
CNC(=O)CSP(=S)(OC)OC	No
CC(C)OC(=O)Nc1cccc(Cl)c1	No
N#CN	No
O=C(O)COc1ccc(Cl)cc1Cl	No
CCN(CC)C(=O)SCc1ccc(Cl)cc1	Yes
CNC(=O)/C=C(\C)OP(=O)(OC)OC	No
CCCN(CCOc1c(Cl)cc(Cl)cc1Cl)C(=O)n1ccnc1	Yes
O=[N+]([O-])c1c(Cl)c(Cl)c(Cl)c(Cl)c1Cl	Yes
CCC(C)(C)C(=O)OC1=C(c2ccc(Cl)cc2Cl)C(=O)OC12CCCCC2	No
CCC(C)Nc1c([N+](=O)[O-])cc(C(C)(C)C)cc1[N+](=O)[O-] (stereo not given)	Yes
COP(=S)(OC)Oc1ccc(SC)c(C)c1	No
CCOCN(C(=O)CCl)c1c(C)cccc1CC	Yes
O=S1OCC2C(CO1)C1(Cl)C(Cl)=C(Cl)C2(Cl)C1(Cl)Cl (stereo not given)	Yes
CCC(C)(NC(=O)c1cc(Cl)c(C)c(Cl)c1)C(=O)CCl (stereo not given)	Yes
CNC(=O)Oc1ccccc1OC(C)C	No
